# Test system: foxtail, giant (giant foxtail, Setaria faberii)
# Measurement Description: Test A greenhouse herbicide test, pre- and postemergence
# Assay type: in vivo
# Measurement Setup: Preemergence, 500 g ai/ha; 0 to 100 scale, 0 no effect, 100 complete control

Smiles Input: COC(=O)Oc1c(C)nn(C)c(=O)c1-c1ccc(Cl)c2ccccc12
Plant response rating, Foxtail, Giant: 70
//
Smiles Input: CCc1ccc2ccccc2c1-c1c(OC(=O)C2CC2)c(C)nn(C)c1=O
Plant response rating, Foxtail, Giant: 40
//
Smiles Input: CCc1sc2ccc(C)cc2c1-c1c(O)c(C)nn(C)c1=O
Plant response rating, Foxtail, Giant: 80
//
Smiles Input: Cc1ccc2c(c1)c(-c1c(O)c(C)nn(C)c1=O)c(C)n2C
Plant response rating, Foxtail, Giant: 0
//
Smiles Input: Cn1ncc(O)c(-c2ccc(F)c3ccccc23)c1=O
Plant response rating, Foxtail, Giant: 80
//
Smiles Input: Cc1cc(C)c2ccccc2c1-c1c(O)c(C)nn(C)c1=O
Plant response rating, Foxtail, Giant: 100
//
Smiles Input: Cc1ccc2oc(C)c(-c3c(O)c(-c4ccccc4)nn(C)c3=O)c2c1
Plant response rating, Foxtail, Giant: 0
